# Tested on: NCI-H322M lung
# assay_details: NCI-60 one-dose screen, 48 h
# test_context: 10 µM unless noted
The panel holds about 83,000 compounds, 20% with a hit somewhere; the sample as a whole holds those more often. Calls of active or inactive are those of the source. How the source made its calls: active means growth percent below 10; inactive means the rest.
Please reply with one of these outcomes: active, inactive

The following molecules have reported results that may help.
{"molecule": "Cc1cc(C)n(C(=O)c2sc(=S)n(-c3ccccc3)c2N=Nc2c(N)n[nH]c2N)n1", "experimental_target": "NCI-H322M lung", "discrete_label": "inactive"}
{"molecule": "C[C@@H]1C[C@H]2C(=O)O[C@@H](C)C(NC(=O)[C@H](Cc3cc(F)cc(F)c3)NC(=O)Nc3ccc(Cl)cc3F)C(=O)N3CCC[C@H]3C(=O)N3CCCC[C@H]3C(=O)N[C@@H](CO)C(=O)N2C1 (some centres undefined)", "experimental_target": "NCI-H322M lung", "discrete_label": "inactive"}
{"molecule": "Nc1ccccc1NC(=O)c1ccc(NC(=O)C/C=C/c2cccnc2)cn1", "experimental_target": "NCI-H322M lung", "discrete_label": "inactive"}

Below: the item to evaluate.
Task: Which outcome did this test record for the molecule Nc1nc(-c2cccc([N+](=O)[O-])c2)c(N=Nc2ccc(Br)cc2)s1 ?
Output: active
